For each of the sequences below, state its relative kcat/Km.
# Target Or Test System: E. coli RNase P holoenzyme (M1 P RNA + rnpA protein) (UniProt P0A7Y8)
# Sequence: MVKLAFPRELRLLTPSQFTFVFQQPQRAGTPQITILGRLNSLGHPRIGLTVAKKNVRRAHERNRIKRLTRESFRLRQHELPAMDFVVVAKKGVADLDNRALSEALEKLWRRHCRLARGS
# Assay Explanation: relative kcat/Km (krel) vs genomic leader AAAGAU (relative (reference leader = 1)); higher = faster RNase P cleavage
# Settings: fraction of substrate reacted: ~26-29% (28.66% repeat 1, 26.4% repeat 2)
Whole data set: some 4,100 sequences, median “relative kcat/Km (krel) vs genomic leader AAAGAU” near 1.7, cut for the highest 2% near 6.5. The sample holds the highest values, similar sequences and a random draw of the others, so the mix is not that of the screen.
Give bare numbers.

Solved cases below.
GACAGG: 1.2
GACTCG: 3.21
TGTTAA: 7.94
CCCTAT: 7.09
CTAGAC: 4.19

Take each entry in turn and give its relative kcat/Km.
1. ACCTAA
2. AGTTTA
3. GGCTTT

1: 6.74; 2: 4.93; 3: 2.15
